Each record here notes measured IC50.
# System: MDA-MB-231
# experimentDescription: MTT cytotoxicity assay, MDA-MB-231 cells
# Type: cell-based, human
# particulars: 24 h exposure, MTT; read-out: IC50 (µM) (average ± standard deviation) 24 h MDA-MB-231

>  <compound>
Cc1cccc[c]1[Ru+]([Cl])([PH]12CN3CN(CN(C3)C1)C2)[PH](c1ccccc1)(c1ccccc1)c1ccccc1.F[P-](F)(F)(F)(F)F (stereo not drawn)

>  <assayedSystem>
MDA-MB-231

>  <IC50 / µM>
113

$$$$
>  <compound>
Cc1ccccc1.[Cl][Ru]([Cl])[PH](c1ccccc1)(c1ccccc1)c1ccccc1

>  <assayedSystem>
MDA-MB-231

>  <IC50 / µM>
164

$$$$
>  <compound>
Cc1ccc(CCC(=O)O)cc1.O=C1[O][Ru]([PH]23CN4CN(CN(C4)C2)C3)[O]C1=O

>  <assayedSystem>
MDA-MB-231

>  <IC50 / µM>
284

$$$$
>  <compound>
Cc1ccccc1.[Cl-].[Cl][Ru+]([PH](c1ccccc1)(c1ccccc1)c1ccccc1)[PH](c1ccccc1)(c1ccccc1)c1ccccc1 [Compound 11Cl, [Ru(η^6-toluene)(PPh3)2Cl]Cl]

>  <assayedSystem>
MDA-MB-231

>  <IC50 / µM>
5.5

$$$$
>  <compound>
Cc1cccc[c]1[Ru+]([Cl])([PH](c1ccccc1)(c1ccccc1)c1ccccc1)[PH](c1ccccc1)(c1ccccc1)c1ccccc1.c1ccc([B-](c2ccccc2)(c2ccccc2)c2ccccc2)cc1

>  <assayedSystem>
MDA-MB-231

>  <IC50 / µM>
100

$$$$
>  <compound>
Cc1cccc[c]1[Ru+]([Cl])([PH](c1ccccc1)(c1ccccc1)c1ccccc1)[PH](c1ccccc1)(c1ccccc1)c1ccccc1.O=[N+]([O-])[O-]

>  <assayedSystem>
MDA-MB-231

>  <IC50 / µM>
4.6

$$$$
